Test system: Wolbachia pipientis
Assay: Anti-Wolbachia Cell-Based Screen
Assay type: functional
Parameters: scale not given: in the data most compounds retested in dose-response had high values
Conditions: 5 µM
Out of some 48,000 compounds screened, about 13,000 (27%) showed an effect of 50% or more. The list shows a part of the results.
Each entry gets F if its Percent Effect stays under 60%, and T if its Percent Effect is 60% or above.

// known answers, use as guide
Cc1nc(C(=O)N2CCCC2c2cncc(CN3CCCC3)n2)co1 (stereo unspecified)
T
CCc1cccc(N2CCC(NC(=O)c3cc[nH]n3)CC2)c1
F
CC(COc1ccccc1)NCc1nncn1C1CCCCC1 (stereo unspecified)
F
Cc1ncc(CNC(=O)N(C)C2CCN(c3ccccc3)C2=O)s1 (stereo unspecified)
F
O=C(c1cc[nH]n1)N1CCCC1c1cncc(CN2CCOCC2)n1 (stereo unspecified)
T

**Q:** Could you tell me if the measured Percent Effect of `COc1ccc2c(c1)nc1n2[C@@H](CNCc2cnn(C)c2)COC1` reaches 60% or more?
**A:** F

###

Each item that follows carries a reported Percent Effect.
System: Wolbachia pipientis
Test: Anti-Wolbachia Cell-Based Screen
Type: functional
Design: scale not given: in the data most compounds retested in dose-response had high values
Conditions: 5 µM
Screen size: about 48,000 compounds; about 13,000 (27%) showed an effect of 50% or more. Some of the results follow.
Please append the unit to your numeric answer.

Answered examples (5):
Cc1cccc(CN2CCc3c(nc(N4CCCCC4C)[nH]c3=O)C2)n1 (stereo unspecified)
-2.625%
CC1CCCCN1c1nc2c(c(=O)[nH]1)CCN(Cc1ccc(O)cc1)C2 (stereo unspecified)
108.9%
Cc1[nH]c(=O)[nH]c(=O)c1CN1CCCC(CCc2ccccc2F)C1 (stereo unspecified)
3.318%
Cc1ccsc1CCNC(=O)CCC1CCCCN1C (stereo unspecified)
3.946%
CC1CCCCN1c1nc2c(c(=O)[nH]1)CCN(Cc1ccccc1F)C2 (stereo unspecified)
109.6%

**Q:** Return Percent Effect (reported value) for this compound: `c1cc(CN2CCc3c(CN4CCCC4)n[nH]c3C2)ccn1`
**A:** -1.373%

**Q:** Determine from records and report Percent Effect for `CCN(Cc1nccn1C)C(=O)c1ccc(NCc2cnn(C)c2)nc1`
**A:** -21.14%

**Q:** State, in one line, measured Percent Effect of Cc1cc(C(=O)N2CCCC2Cn2nc(C)cc2C)on1 (stereo unspecified)
**A:** -0.3102%

###

Measured Percent Effect by item
System: Wolbachia pipientis
Test: Anti-Wolbachia Cell-Based Screen
Assay type: functional
Parameters: scale not given: in the data most compounds retested in dose-response had high values
Details: 5 µM
Out of some 48,000 compounds screened, about 13,000 (27%) showed an effect of 50% or more. The list shows a part of the results.
// note: answer is a bare numeric in %

**Q:** Tell me its Percent Effect given OCC1CCCCN1CCn1ccnc1-c1ccc2c(c1)OCCO2 (centres undefined) as the entry.
**A:** 3.348

**Q:** Give a short answer stating reported Percent Effect for `Cc1noc(C)c1CN1C(=O)[C@H]2CC[C@@H]1CN(Cc1ccc(Cl)cc1)C2` .
**A:** -8.21

**Q:** Report Percent Effect for `CC(=O)N[C@H]1CCN(C(=O)c2cc(Cn3cnc4ccccc43)[nH]n2)C1`
**A:** -30.35

**Q:** Specify measured Percent Effect for `CCCN(CC)C(=O)c1cc(Cn2c(C)nc3ccccc32)[nH]n1` .
**A:** 146

**Q:** Using known records, supply Percent Effect for CC(CNC(=O)c1cc(Cn2cnc3ccccc32)[nH]n1)N1CCCC1 (centres undefined)
**A:** 2.077

**Q:** Answer with the recorded Percent Effect for the compound listed here: OCC1CCCCN1Cc1cc(O)c2cccc(F)c2n1 (centres undefined)
**A:** -10.07

**Q:** Return reported Percent Effect. Input compound: `CCN(CCO)C(=O)c1cc(Cn2c(C)nc3ccccc32)[nH]n1`
**A:** 148

**Q:** Provide only the value of recorded Percent Effect for `CN(Cc1ccc(N2CCCCC2)cc1)Cc1noc(C(C)(C)C)n1`
**A:** 16.16

**Q:** Tell us which Percent Effect value is on record for CC1CCCCN1C(=O)CCn1cnc2sccc2c1=O (centres undefined)
**A:** -3.502

**Q:** Please report the measured Percent Effect for `CN(Cc1c(F)cccc1Cl)C(=O)Nc1cnn(CC(N)=O)c1`
**A:** -4.374

**Q:** Give the measured Percent Effect for `CCCN(CC)C(=O)c1nc2c(n1C)CCN(Cc1ccccc1)C2`
**A:** -8.908

**Q:** Annotate the compound O=c1c2ccc(Cl)cc2ncn1CCCN1CCCCC1CO (centres undefined) with its measured Percent Effect.
**A:** 62.54

**Q:** State its Percent Effect for this compound: CCC1CCCCN1C(=O)CCn1cnc2sccc2c1=O (centres undefined)
**A:** 3.224

**Q:** State its Percent Effect for this compound: `CCc1nnsc1C(=O)N1CCCN(Cc2cnn(CC)c2)CC1`
**A:** -1.096

**Q:** Using known records, supply Percent Effect for `COCCN(C(=O)c1cc(-c2ccc(C)s2)[nH]n1)C1CC1`
**A:** 0.109

**Q:** Answer with the recorded Percent Effect for the compound listed here: Cc1nc(C)n(CC2CCCCN2CCCN2CCCC2=O)n1 (centres undefined)
**A:** -1.453

**Q:** Could you please provide reported Percent Effect for `CCOC(=O)c1ccc(CNC(=O)c2ccc(Cl)cn2)o1` ? Thanks!
**A:** -5.208

**Q:** Give the value of Percent Effect reported for the following: `c1cncc(O[C@H]2COCCN(C3CCC3)C2)c1`
**A:** -11.18

**Q:** Find the measured Percent Effect of `CC(=O)N1CCC(NC2(Cc3cc(CN(C)C)on3)COC2)CC1` and report it.
**A:** -3.87

**Q:** Answer with the recorded Percent Effect of `N#Cc1ccnc(N2CCC(NCCN3CCOCC3)CC2)c1` only.
**A:** -1.692

**Q:** Give the measured Percent Effect for Cc1cc(C)n(CC2CCCCN2CCCS(N)(=O)=O)n1 (centres undefined)
**A:** 6.399

###

System: Wolbachia pipientis
Experiment: Anti-Wolbachia Cell-Based Screen
Format: functional
Parameters: scale not given: in the data most compounds retested in dose-response had high values
Details: 5 µM
Hit rate of the full screen: of about 48,000 compounds, about 13,000 (27%) showed an effect of 50% or more. This is one part of the list.
Items are presented alongside their recorded Percent Effect.
Form entry: value (%) — number only.

Example results:
CC(C)(C)OCC1CN(CC2CC2)S(=O)(=O)c2cnccc2O1 (stereo unspecified)
96.42
C1CCN(Cc2nnn3c2CN(CC2CC2)CCC3)C1
3.513
CCc1nnc2n1CCN(Cc1csc(NC(C)=O)n1)C2
125.2

**Q:** System Wolbachia pipientis. Read-out Percent Effect. Item CCN1CC(COc2ccc(OC)cc2)Oc2ccncc2S1(=O)=O (stereo unspecified) . Report value.
**A:** 109.7

**Q:** GET Percent Effect | system: Wolbachia pipientis | item: `CC(=O)Nc1nc(CN2CCn3c(nnc3C3CC3)C2)cs1`
**A:** -1.677

**Q:** Enter Percent Effect (test system Wolbachia pipientis) for `Cn1cc(CN2CC[C@@H]3[C@@H]2CCN3C(=O)c2cccc(F)c2)cn1.O=C(O)C(F)(F)F`
**A:** -56.05

**Q:** Give Percent Effect for this entry on Wolbachia pipientis: CN(Cc1cn2c(n1)CN(C(=O)C1CCCO1)CC2)Cc1ccco1 (stereo unspecified)
**A:** 5.5

**Q:** Please tell me the measured Percent Effect for `CCc1nnc2n1CCN(C(=O)c1cnc3ccccc3n1)C2` ; system: Wolbachia pipientis.
**A:** -19.02

**Q:** State Percent Effect on Wolbachia pipientis. Entry: `CCc1nnc2n1CCN(Cc1csc(-c3cnn(C)c3)n1)C2`
**A:** -17.9

**Q:** State measured Percent Effect of the molecule `CN(C)CCC1CCN(Cc2ccn(C)c(=O)c2)CC1` with Wolbachia pipientis.
**A:** 112.8

###

Tested on: Wolbachia pipientis
Assay: Anti-Wolbachia Cell-Based Screen
Format: functional
Parameters: scale not given: in the data most compounds retested in dose-response had high values
Settings: 5 µM
In all, about 48,000 compounds went through this assay and about 13,000 (27%) showed an effect of 50% or more. The list shows a part of the results.
# class 1 = Percent Effect below -10% (exclusive); class 0 = Percent Effect at/above -10%

CN(Cc1ccc(F)cc1)CC1(O)CCN(C(=O)c2ccsc2)C1 (stereo not given)
class 0
CC(C)CC(NC(=O)CN(C)c1cnccn1)c1cccs1 (stereo not given)
class 0
CNC(=O)[C@@H]1C[C@H]2CN(Cc3csc(C)n3)C[C@H]2N1C(C)C.O=C(O)C(F)(F)F.O=C(O)C(F)(F)F
class 0
CC(=O)Nc1ccc(Cl)c(C(=O)N(C)C(C)c2ccon2)c1 (stereo not given)
class 0
CC(C)C(C)(O)CNC(=O)Nc1ccccn1 (stereo not given)
class 1
CCC(O)(CNCc1ncc[nH]1)c1ccc(Br)cc1 (stereo not given)
class 0
CN(C)CC1(O)CCCN(C(=O)c2cnc(-c3ccccn3)nc2)C1 (stereo not given)
class 0
CNC(=O)[C@@H]1C[C@H]2CN(C(=O)c3ccco3)C[C@H]2N1C(C)C.O=C(O)C(F)(F)F
class 0

**Q:** Given the entry `CNC(=O)[C@@H]1C[C@H]2CN(C(=O)c3ccco3)C[C@H]2N1C.O=C(O)C(F)(F)F` , would its reported Percent Effect be below -10%?
**A:** class 1

**Q:** State whether -10% exceeds Percent Effect recorded for CC(NC(=O)NCCNc1cccc(F)c1C#N)c1cccs1 (stereo not given) .
**A:** class 0

**Q:** Is Percent Effect strictly under -10% for the entry CC(C)C(NC(=O)NCCNc1cnccn1)c1cccs1 (stereo not given) ?
**A:** class 0

**Q:** State whether -10% exceeds Percent Effect recorded for `Cc1nc(CN2C[C@@H](NC(=O)C3CCC3)[C@H]3COC[C@H]32)cs1.O=C(O)C(F)(F)F` .
**A:** class 1

**Q:** Below -10% on Percent Effect? Entry `Cc1nc(CN2CCO[C@@H]3CN(C(=O)NC(C)C)CC[C@@H]3C2)cs1.O=C(O)C(F)(F)F`
**A:** class 1

**Q:** Check if Percent Effect falls below -10% for `CNC(=O)[C@H]1C[C@@H]2CN(S(=O)(=O)Cc3ccccc3)C[C@@H]2N1C.O=C(O)C(F)(F)F` .
**A:** class 0

**Q:** Just wondering, is Percent Effect of `CNC(=O)[C@H]1C[C@@H]2CN(Cc3csc(C)n3)C[C@@H]2N1S(C)(=O)=O.O=C(O)C(F)(F)F` below -10%?
**A:** class 0

**Q:** In the record for CC(C)C(NC(=O)Nc1ccccn1)c1cccs1 (stereo not given) , is Percent Effect less than -10%?
**A:** class 0

**Q:** Say whether its Percent Effect is strictly beneath -10%. Entry: `Cc1nc(CN2CCn3cc(CNC(=O)C4CCC4)nc3C2)cs1.O=C(O)C(F)(F)F`
**A:** class 1

**Q:** Please indicate whether the reported Percent Effect of `Cc1ncc(CC(=O)N2CCC(N3C[C@@H](C)O[C@@H](C)C3)CC2)c(=O)[nH]1` is strictly below -10%.
**A:** class 1

**Q:** Lab note: confirm whether the reported Percent Effect for this molecule is below -10%, equality not counting. molecule: CC(C)C(NC(=O)c1ccc(N2CCOCC2)nc1)c1cccs1 (stereo not given)
**A:** class 0

**Q:** is_below(Percent Effect, -10%) for O=C(CN1CCOC(c2ccc(Cl)c(Cl)c2)C1)NCc1ccco1 (stereo not given) ?
**A:** class 1
